biological target: p70 S6 kinase (S6K1) (Rattus norvegicus, UniProt P67999)
Sequence (P67999 24-525): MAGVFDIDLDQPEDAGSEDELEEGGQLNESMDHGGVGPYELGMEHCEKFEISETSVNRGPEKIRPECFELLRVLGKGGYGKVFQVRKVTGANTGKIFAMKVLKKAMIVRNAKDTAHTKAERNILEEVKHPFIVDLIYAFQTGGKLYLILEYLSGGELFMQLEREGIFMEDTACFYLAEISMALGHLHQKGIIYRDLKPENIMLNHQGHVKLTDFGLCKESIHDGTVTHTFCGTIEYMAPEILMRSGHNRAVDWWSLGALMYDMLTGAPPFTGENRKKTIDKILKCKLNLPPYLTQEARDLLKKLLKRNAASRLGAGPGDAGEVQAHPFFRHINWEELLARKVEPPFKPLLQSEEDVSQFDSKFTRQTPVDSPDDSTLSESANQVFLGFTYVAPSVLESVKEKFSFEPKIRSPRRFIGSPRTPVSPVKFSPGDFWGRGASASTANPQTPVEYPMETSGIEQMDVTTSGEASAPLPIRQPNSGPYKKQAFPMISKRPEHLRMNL
Readout: IC50

query: Item: Oc1ccc(/C=C/c2cc(O)cc(O)c2)cc1 [Res, resveratrol] Test system: p70 S6 kinase (S6K1) (Rattus norvegicus, UniProt P67999) Read-out: IC50 Value: ?
result: ~25 µM
